Target entity: Mitogen-activated protein kinase kinase kinase 3 (Homo sapiens)
Method description: MEKK3 PB1-MEK5 interaction blockers – biochemical, bead multiplex flow cytometry, wildtype, dose response (AID 1896)
Measurement context: bead-based multiplex flow cytometry, MEK5-MEKK3 PB1 binding; measured here: Ki from EC50
Attribute measured: log10(Ki) (log10 of the value in µM)

{"Chemical structure": "O=C1Nc2ccc(Br)cc2/C1=N/N=C/C1=C(N2CCOCC2)C(=C\\c2ccccc2)/CC1", "Attribute measured": "log10(Ki)", "Measured": 0.18}
{"Chemical structure": "CCC(=C/c1sc2ccc3ccccc3c2[n+]1C)/C=C1\\Sc2ccc3ccccc3c2N1C", "Attribute measured": "log10(Ki)", "Measured": -0.64}
{"Chemical structure": "Cc1nn2c(N)csc2nc1=O", "Attribute measured": "log10(Ki)", "Measured": 0.55}
{"Chemical structure": "CCN1/C(=C/c2ccc3cc(C)ccc3[n+]2CC)Sc2cc(C)c(C)cc21", "Attribute measured": "log10(Ki)", "Measured": 0.70}
{"Chemical structure": "CCN(CC)CCOC(=O)c1ccc(N/C=C(/C#N)c2nc(-c3cc4ccccc4oc3=O)cs2)cc1", "Attribute measured": "log10(Ki)", "Measured": 0.51}

----------
Target entity: Mitogen-activated protein kinase kinase kinase 3 (Homo sapiens)
Method description: MEKK3 PB1-MEK5 interaction blockers – biochemical, bead multiplex flow cytometry, wildtype, dose response (AID 1896)
Measurement context: bead-based multiplex flow cytometry, MEK5-MEKK3 PB1 binding; measured here: Ki from EC50

{"Compound": "CCN1C(c2ccccc2)=C(c2ccccc2)S/C1=C/C=C1\\SC(=S)N(C)C1=O", "Value unit": "µM", "Ki": 2.91}
{"Compound": "CN1CCN(c2ccc(NC(=O)c3ccc(-c4ccc(Cl)cc4)o3)cc2)CC1", "Value unit": "µM", "Ki": 2.29}
{"Compound": "CCCCn1c(O)c(/C=C/C=C/C=Nc2ccccc2)sc1=S", "Value unit": "µM", "Ki": 1.1}
{"Compound": "CCN(CC)CCOC(=O)c1ccc(N/C=C(/C#N)c2nc(-c3ccc(OC)c(OC)c3)cs2)cc1", "Value unit": "µM", "Ki": 2.15}
{"Compound": "CCN1C(c2ccccc2)=C(c2ccccc2)S/C1=C\\C=C1/SC(=S)N(C)C1=O", "Value unit": "µM", "Ki": 3.36}
{"Compound": "CN1C(=O)/C(=C\\c2ccc(-c3ccccc3)o2)SC1=S", "Value unit": "µM", "Ki": 8.75}
{"Compound": "CNc1nc(-c2c[nH]c3ccccc23)cs1", "Value unit": "µM", "Ki": 7.47}
{"Compound": "Cc1nc(Nc2cnc(/C=C/c3cc(C(=O)Nc4cccc(C(F)(F)F)c4)ccc3C)cn2)cc(N2CCNCC2)n1", "Value unit": "µM", "Ki": 21.5}
{"Compound": "C#CCOCCOCCOCCNc1nc(N2CCN(C(=O)[C@H]([C@@H](C)CC)n3cc([C@@H](N)CO)nn3)CC2)nc(N2CCN(C(=O)[C@H](Cc3cc4ccccc4[nH]3)n3cc([C@@H](N)Cc4ccc(O)cc4)nn3)CC2)n1", "Value unit": "µM", "Ki": 7.08}
{"Compound": "CCN1/C(=C/c2ccc3cc(C)cc(C)c3[n+]2CC)Sc2cc(C)ccc21", "Value unit": "µM", "Ki": 9.04}
{"Compound": "CCNc1ccc2noc3c2c1C(=O)c1ccccc1-3", "Value unit": "µM", "Ki": 3.89}
{"Compound": "CN(c1ccccc1)c1ccc(/C=c2\\s/c(=C(/C#N)C(=O)C(C)(C)C)n(Cc3ccco3)c2=O)cc1", "Value unit": "µM", "Ki": 0.29}
{"Compound": "Brc1ccc(N=C/C=C/C=C/Nc2ccc(Br)cc2)cc1", "Value unit": "µM", "Ki": 9.04}
{"Compound": "Cc1cc2ccccc2n1CCNC(=O)c1ccc(Br)o1", "Value unit": "µM", "Ki": 10.1}
{"Compound": "COc1ccc2nc(C)cc(N/N=C/c3ccc(F)cc3)c2c1", "Value unit": "µM", "Ki": 7.49}
{"Compound": "Nc1ccc(N)c(C(=O)O)c1", "Value unit": "µM", "Ki": 2.62}
{"Compound": "Cc1cc2ccccc2n1CCNC(=O)c1ccccc1", "Value unit": "µM", "Ki": 4.77}
{"Compound": "N#CC(C#N)=c1ccc2c(c1)N1C(c3ccccc3)=CC(c3ccccc3)C3CCCCC31N=2 (stereo not given)", "Value unit": "µM", "Ki": 1.4}
{"Compound": "CCN1/C(=C\\c2ccc3cc(C)ccc3[n+]2CC)Sc2cc(C)c(C)cc21", "Value unit": "µM", "Ki": 7.93}
{"Compound": "COc1cccc(OC)c1-c1nn2c(-c3cc(-c4ccccc4)n[nH]3)nnc2s1", "Value unit": "µM", "Ki": 4.59}
